# assay-details: M. tuberculosis H37Rv growth inhibitors, H37Rv strain (AID 1626);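 further: bacteria incubated seven days before Alamar blue readout; 0% = bacteria only wells and 100% = bacteria with antibiotic wells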
# measurement-conditions: active compounds read high, concentration not given here
Screen size: about 220,000 compounds; about 2,000 (0.91%) were called active. Roughly 2% stayed inconclusive and do not appear here. These entries were drawn from the full list. Entries with a potency or affinity are not part of this list.
Property: inhibition; scope: individual compounds
readout-label: inhibition (%)

INSERT INTO assay_data (compound, readout_label, recorded_result) VALUES
  ('Cc1ccn2c(Nc3ccc4c(c3)OCO4)c(-c3ccccn3)nc2c1', 'inhibition', 12.5),
  ('CSc1nnc(-c2cnccn2)n1Cc1ccccc1', 'inhibition', -1.1),
  ('CCCn1c(SCC(=O)Nc2ccc(OC)cc2[N+](=O)[O-])n[nH]c1=O', 'inhibition', 1.11),
  ('CC1=Nc2ccccc2/C1=C\c1nc(-c2ccccc2)oc1O', 'inhibition', 3.61),
  ('N#Cc1ccc(NC(=O)c2cc(-c3cccs3)on2)cc1', 'inhibition', -3.45),
  ('Cc1cccc(N2CCN(C(=O)c3ccncc3)CC2C)c1 (stereo not drawn)', 'inhibition', -7.46),
  ('CCOC(=O)NC(=O)c1cn(Nc2ncc(Cl)cc2C(F)(F)F)c(=O)[nH]c1=O', 'inhibition', -8.73),
  ('O=C(O)c1cccc(Cn2c(Cl)c(/C=N/NC(=O)c3ccc(O)cc3)sc2=O)c1', 'inhibition', -11.5);

###

# assay-details: M. tuberculosis H37Rv growth inhibitors, H37Rv strain (AID 1626);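 further: bacteria incubated seven days before Alamar blue readout; 0% = bacteria only wells and 100% = bacteria with antibiotic wells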
# measurement-conditions: active compounds read high, concentration not given here
Out of some 220,000 compounds screened, about 2,000 (0.91%) were called active. Inconclusive results (about 2%) are left out. A selection follows. Results with a measured potency or affinity are listed apart.
Property: inhibition; scope: individual compounds
readout-label: inhibition (%)

INSERT INTO measurements (compound, recorded_result) VALUES
  ('O=C(Nc1ccccn1)c1ccc(Br)c(S(=O)(=O)N2CCCCC2)c1', 4.83),
  ('CC(=O)c1ccc(OC(C)C)c(CSC(=N)N)c1', -9.08),
  ('Cc1ccc(-c2nn(-c3ccccc3)cc2NC(=O)c2ccccc2)cc1', -0.55),
  ('NC(=S)NC1CC2C=CC1C2 (stereo not given)', -6.06),
  ('O=C(Cc1c[nH]c2ccccc12)NCc1ccc2c(c1)OCO2', 8.71),
  ('CC(=O)Nc1cccc(-c2nc3ccccc3c(=O)o2)c1', 9.37),
  ('O=C1C2C3C=CC(C3)C2C(=O)N1c1ccc(-c2nc3ccccc3o2)cc1 (stereo not given)', 0.58),
  ('CCCC(=O)Nc1cccc(-c2nc3ccccc3o2)c1', 5.23),
  ('COc1ccc(NS(=O)(=O)c2ccc3nc(COc4ccc(C#N)cc4)[nH]c3c2)cc1', 12.1),
  ('CC(=O)C1=C(C)NC(=O)CC1c1ccc(F)cc1 (stereo not given)', -1.68),
  ('CC(C)(C)C(=O)Cn1c(NCCCl)nc2ccccc21', 0.32),
  ('O=C(COC(=O)c1ccc(Br)cc1)NCCN1C(=O)CSC1=O', -0.22),
  ('COc1ccc(N=Cc2c(O)n(Cc3ccccc3)c(=S)[nH]c2=O)c(OC)c1', 6.73),
  ('O=C(NCc1ccccc1)c1ccc(Br)cc1', -2.09),
  ('O=C(Nc1cn(-c2ccccc2)nc1-c1ccc(Cl)cc1)c1ccccc1', 9.57);
